FYI, the data here is from PubChem BioAssay (NCI).

Tested on: SW-620 colon
Test: NCI-60 one-dose screen, 48 h
Settings: 10 µM
Compounds without any hit were thinned out: in the full panel of roughly 83,000, 20% have a hit. Calls of active or inactive are those of the source. Rule for the calls: active = growth percent below 10; inactive = the rest.
Result category, one only: active, inactive

molecule: COc1ccc(-c2nc3ncccn3c2-c2nnc(-c3ccsc3C)o2)cc1
class-name: inactive

molecule: CC12O[C@H](C[C@@H](O)[C@H]1O)n1c3ccccc3c3c4c(c5c6ccccc6n2c5c31)C(=O)N(CCCN)C4=O
class-name: inactive

molecule: CCN1CCC2(CC1)OC(c1ccccc1)C(c1ccccc1)O2 (centres undefined)
class-name: inactive

molecule: COC(=O)[C@@H]1[C@H](O)[C@H](C)[C@H](O)[C@@](C)(O)/C=C\C=C(C)C(=O)Nc2c(C)c(OC(C)=O)c3c(c2O)C(=O)C(C)=C2OCOC(=C23)C(C)=C[C@@](C)(O)[C@H](O)[C@@H](C)[C@H]1OC(C)=O
class-name: inactive

molecule: COc1cccc(-c2cc(-c3cccc(NS(C)(=O)=O)c3)nc(N)c2C#N)c1O
class-name: inactive

What was the test verdict on CCN(CC)CCOc1nc2ccc(OC)cc2c2c1-c1ccc(OC)cc1C2=O ?
active

Name the outcome recorded for Oc1[nH]c2ccc(Cl)cc2c1/C=c1/ccc2c(c1)N=C(c1cc(F)cc(F)c1)N=2 in the assay.
inactive

Hi, sorry to bother you, what did the test record for Cc1nc2ccc(CN(C)c3ccc(C(=O)N[C@@H](CCC(=O)O)C(=O)O)s3)cc2c(=O)[nH]1 ?
inactive

Please let me know the test result on file for COc1ccc(/C=C2/CN(C(=O)c3ccc(C)cc3)C/C(=C\c3ccc(OC)cc3)C2=O)cc1 .
inactive

What was the test verdict on COc1cc(/C=C/C(=O)c2ccc(Cl)cc2)ccc1OS(=O)(=O)c1ccc(C)cc1 ?
active
